Below, each entry is listed alongside its reported IC50.
Target: EGFR tyrosine kinase (Homo sapiens, UniProt P00533)
Construct: Recombinant intracellular fragments of EGFR, erbB2 and erbB4; made in house; host or cells: baculovirus/Sf21 insect cells (cleared lysate used)
Sequence (P00533 669-1210 limits assumed): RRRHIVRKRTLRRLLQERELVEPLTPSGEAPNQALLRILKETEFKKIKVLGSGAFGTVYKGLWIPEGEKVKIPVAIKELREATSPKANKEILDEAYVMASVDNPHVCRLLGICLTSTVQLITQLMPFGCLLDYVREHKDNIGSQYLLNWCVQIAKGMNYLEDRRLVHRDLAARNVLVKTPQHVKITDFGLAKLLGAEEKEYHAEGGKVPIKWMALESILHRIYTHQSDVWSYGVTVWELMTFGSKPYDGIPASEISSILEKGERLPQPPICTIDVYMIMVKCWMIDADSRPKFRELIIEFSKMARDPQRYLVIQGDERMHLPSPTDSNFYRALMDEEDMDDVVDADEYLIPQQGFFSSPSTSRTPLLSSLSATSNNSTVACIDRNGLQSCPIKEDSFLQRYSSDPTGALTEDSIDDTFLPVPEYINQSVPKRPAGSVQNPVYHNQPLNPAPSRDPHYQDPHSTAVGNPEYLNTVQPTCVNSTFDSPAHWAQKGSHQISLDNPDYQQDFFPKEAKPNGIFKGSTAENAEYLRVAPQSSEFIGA
Experiment: Protein tyrosine kinase phosphorylation assay, Test (a)
Assay type: biochemical
Conditions: recombinant intracellular fragment, ATP at Km concentration; read-out: IC50 (nM) Test (a) (Inhibition of EGFR tyrosine kinase protein phosphorylation)
# number only, unit nM dropped from output

-- ask Look up IC50: `COCC(=O)N1CC[C@@H](Oc2cc3ncnc(Nc4cccc(Cl)c4F)c3cc2OC)C1`
-- reply 217

###

Below, each entry is listed alongside its reported IC50.
Target: EGFR tyrosine kinase (Homo sapiens)
Construct: Recombinant intracellular fragments of EGFR, erbB2 and erbB4; made in house; host or cells: baculovirus/Sf21 insect cells (cleared lysate used)
Assay: Protein tyrosine kinase phosphorylation assay, Test (a)
Type: biochemical
Conditions: recombinant intracellular fragment, ATP at Km concentration; read-out: IC50 (nM) Test (a) (Inhibition of EGFR tyrosine kinase protein phosphorylation)
# number only, unit nM dropped from output

Record excerpt, results attached:
{"molecule": "COc1cc2c(Nc3cccc(Cl)c3F)ncnc2cc1OC1CCN(C(=O)C2CCC(=O)N2)CC1 (stereo not drawn) [6[5]]", "IC50, nM": 41}
{"molecule": "COc1cc2c(Nc3cccc(Cl)c3F)ncnc2cc1OC1CN(C(=O)[C@H](C)O)C1", "IC50, nM": 17}

-- ask API: value(readout= IC50, system= EGFR tyrosine kinase (Homo sapiens), query= `COc1cc2c(Nc3cccc(Cl)c3F)ncnc2cc1OC1CN(C(=O)[C@@H](C)O)C1` )
-- reply 8
